- Tested on: GSCs isolated from U87MG cells
- test_name: GSC proliferation, MTS assay
- Type: cell-based, human
- condition_info: Homo sapiens, U-87 MG, 168 h; seven days of treatment, MTS assay

compound	IC50 / nM
O=C1Nc2ccc(NC(=O)[C@H](NC(=O)c3cccn(Cc4ccc(F)c(F)c4)c3=O)c3ccccc3)cc2/C1=C/c1cnc[nH]1	5.47
CO[C@H]1C[C@@H]2CC[C@@H](C)[C@@](O)(O2)C(=O)C(=O)N2CCCC[C@H]2C(=O)O[C@H]([C@H](C)C[C@@H]2CC[C@@H](OCCO)[C@H](OC)C2)CC(=O)[C@H](C)/C=C(\C)[C@@H](O)[C@@H](OC)C(=O)[C@H](C)C[C@H](C)/C=C/C=C/C=C/1C [Everolimus, reference compound]	15
O=C1Nc2ccc(NC(=O)[C@H](NC(=O)c3cccn(Cc4ccc(F)c(F)c4)c3=O)c3ccccc3)cc2/C1=C/c1ncc[nH]1	0.3
O=C(CNC(=O)c1cccn(Cc2ccc(F)c(F)c2)c1=O)Nc1ccc2c(c1)/C(=C/c1cnc[nH]1)C(=O)N2	3.36

// data source = patent US10351548B2
